# System: HSkMC
# protocolNotes: cytotoxicity call (relative viability < 0.9)
# condition: 10 µM
Among all 39,000 compounds or so, about 1,500 (3.8%) were called active. What follows is part of a selection rich in actives, with near analogues and random picks from the rest.
Select the correct class. Options are active, inactive and nothing else.

> print(dat)
                               linenotation  assayedtarget  labelclass
1  CN(C)C/C=C/C(=O)Nc1ccc(C(=O)Nc2cccc(Nc3ncc(Cl)c(-c4c[nH]c5ccccc45)n3)c2)cc1          HSkMC      active
2  C[C@H]1CN([C@@H](C)CO)S(=O)(=O)c2ccc(C#Cc3ccncc3)cc2O[C@H]1CN(C)S(=O)(=O)c1ccc(F)cc1          HSkMC    inactive

Ask | Outcome? `C[C@@H]1CN([C@@H](C)CO)S(=O)(=O)c2ccc(C#CC3(O)CCCC3)cc2O[C@H]1CN(C)C(=O)Nc1ccccc1`
Reply | inactive

----------
# System: HSkMC
# protocolNotes: cytotoxicity call (relative viability < 0.9)
# condition: 10 µM
About 1,500 (3.8%) of roughly 39,000 compounds were called active. This excerpt belongs to a sample that is enriched for actives.
Select the correct class. Options are active, inactive and nothing else.

lineNotation	labelClass
C[C@@H]1CN([C@H](C)CO)S(=O)(=O)c2ccc(C#CCN(C)C)cc2O[C@@H]1CN(C)S(C)(=O)=O	inactive
O=C(C[C@H]1C[C@H]2c3cc(NC(=O)Nc4ccccc4F)ccc3O[C@H]2[C@@H](CO)O1)NCc1ccc(Oc2ccccc2)cc1	active
CC(C)NC(=O)Nc1ccc2c(c1)CC(=O)N([C@H](C)CO)C[C@@H](C)[C@@H](CN(C)Cc1ccc(Oc3ccccc3)cc1)O2	active
C[C@@H]1CN([C@H](C)CO)C(=O)Cc2cc(NC(=O)Nc3ccccc3)ccc2O[C@H]1CN(C)Cc1ccc(Oc2ccccc2)cc1	inactive

Ask | Outcome? `COc1ccc(C#Cc2ccc3c(c2)[C@]2(C(=O)N3)[C@H](C(N)=O)[C@H]3C(=O)O[C@H](c4ccccc4)[C@H](c4ccccc4)N3[C@@H]2c2ccc(OCCO)cc2)cc1`
Reply | inactive

Ask | Outcome? `C[C@@H]1CN([C@@H](C)CO)C(=O)c2cc(NC(=O)Cc3ccccc3)ccc2O[C@@H]1CN(C)C(=O)Nc1ccc(C(F)(F)F)cc1`
Reply | inactive

----------
# Tested on: HSkMC
# protocolNotes: cytotoxicity call (relative viability < 0.9)
# condition: 10 µM
The campaign covered roughly 39,000 compounds. About 1,500 (3.8%) were called active. The sample holds actives, similar compounds and a random draw of the others, so the mix is not that of the screen.
Select the correct class. Options are active, inactive and nothing else.

> print(dat)
                     compound  labelclass
1  Cc1nc(C)n(C(=O)N2CCOCC2)n1    inactive

Ask | Outcome? `C[C@H](CO)N1C[C@H](C)[C@H](CN(C)Cc2cccc(C(F)(F)F)c2)Oc2ncc(/C=C/c3ccccc3)cc2C1=O`
Reply | active

Ask | Outcome? `C[C@@H]1CN([C@H](C)CO)C(=O)c2cccc(NC(=O)Nc3ccc(C(F)(F)F)cc3)c2O[C@@H]1CN(C)Cc1ccc(-c2ccccc2)cc1`
Reply | active

Ask | Outcome? `C[C@H](CO)N1C[C@H](C)[C@H](CN(C)Cc2cccc(C(F)(F)F)c2)Oc2ncc(-c3ccccc3)cc2C1=O`
Reply | inactive

Ask | Outcome? CN(C)CCCC1(c2ccc(F)cc2)OCc2cc(C#N)ccc21.O=C(O)C(=O)O (stereo not drawn)
Reply | inactive

Ask | Outcome? `C[C@H](CO)N1C[C@H](C)[C@H](CN(C)Cc2ccccc2)Oc2ncc(-c3cccc(C(F)(F)F)c3)cc2C1=O`
Reply | inactive

Ask | Outcome? `COc1ccc2c3c([nH]c2c1)[C@H](CO)N(C[C@]13CCN(CC1)C(=O)c1ccncc1)C(=O)c1ccncc1`
Reply | inactive

Ask | Outcome? `C[C@H](CO)N1C[C@H](C)[C@H](CN(C)Cc2ccc(O)cc2)OCc2ccccc2-c2c(n(C)c3ccccc23)C1=O`
Reply | inactive

----------
# System: HSkMC
# protocolNotes: cytotoxicity call (relative viability < 0.9)
# condition: 10 µM
Among all 39,000 compounds or so, about 1,500 (3.8%) were called active. Many of the other results were omitted from the sample, so actives are more common in it than they were.
Select the correct class. Options are active, inactive and nothing else.

molecule	labelClass
COc1ccc(NC(=O)N(C)C[C@H]2OCCCC[C@@H](C)Oc3ccc(NC(=O)c4ccccc4)cc3C(=O)N([C@H](C)CO)C[C@@H]2C)cc1	inactive
C[C@H](CO)N1C[C@H](C)[C@@H](CN(C)Cc2ccccc2)OCCCC[C@H](C)Oc2ccc(NC(=O)Nc3ccc4c(c3)OCO4)cc2C1=O	inactive
C[C@@H]1CCCCO[C@@H](CN(C)CC2CCCCC2)[C@@H](C)CN([C@H](C)CO)C(=O)c2cc(NC(=O)Nc3ccc(C(F)(F)F)cc3)ccc2O1	active
C[C@@H]1CN([C@H](C)CO)C(=O)c2cc(C#CCN(C)C)cnc2O[C@@H]1CN(C)Cc1ccc2c(c1)OCO2	inactive
CC(C=CC=C(C)C=CC(=O)C1(C)CC(O)CC1(C)C)=CC=CC=C(C)C=CC=C(C)C=CC1=C(C)CC(O)CC1(C)C (configuration not stated)	inactive

Consider the record given below.
Ask | Outcome? `CC(C)NC(=O)Nc1ccc2c(c1)CC(=O)N([C@@H](C)CO)C[C@@H](C)[C@@H](CN(C)S(=O)(=O)c1cn(C)cn1)O2`
Reply | inactive

----------
# Tested on: HSkMC
# protocolNotes: cytotoxicity call (relative viability < 0.9)
# condition: 10 µM
Screen size: about 39,000 compounds; about 1,500 (3.8%) were called active. Only a selection was taken, and actives are over-represented in it overall.
Select the correct class. Options are class 1 (active), class 0 (inactive) and nothing else.

> print(dat)
                               linenotation  labelclass
1  C[C@H](O)C#Cc1ccc2c(c1)O[C@@H](CN(C)C(=O)Cc1ccccn1)[C@H](C)CN([C@H](C)CO)S2(=O)=O     class 0

Ask | Outcome? `C[C@@H]1CCCCO[C@H](CN(C)S(=O)(=O)c2cccs2)[C@@H](C)CN([C@@H](C)CO)C(=O)c2cc(NC(=O)Nc3ccc(C(F)(F)F)cc3)ccc2O1`
Reply | class 1

Ask | Outcome? `O=C(c1cnc2ccccc2c1)C1CC1`
Reply | class 0

Ask | Outcome? `C[C@H](CO)N1C[C@H](C)[C@H](CN(C)Cc2ccc(C(F)(F)F)cc2)OCCCC[C@H](C)Oc2ccc(NC(=O)Nc3ccc4c(c3)OCO4)cc2C1=O`
Reply | class 0

Ask | Outcome? `Cc1noc(C)c1S(=O)(=O)N(C)C[C@@H]1OCCCC[C@@H](C)Oc2ccc(NC(=O)Nc3ccccc3)cc2C(=O)N([C@H](C)CO)C[C@H]1C`
Reply | class 0

Ask | Outcome? `C[C@@H]1CN([C@H](C)CO)C(=O)c2cc(NC(=O)Nc3ccc(C(F)(F)F)cc3)ccc2O[C@@H](C)CCCCO[C@@H]1CN(C)S(=O)(=O)c1cccs1`
Reply | class 0

Ask | Outcome? `C[C@@H]1CN([C@@H](C)CO)C(=O)Cc2cc(NC(=O)CCC(F)(F)F)ccc2O[C@@H]1CN(C)S(=O)(=O)c1ccccc1`
Reply | class 0

Ask | Outcome? `C[C@H]1CN([C@@H](C)CO)C(=O)c2cc(NC(=O)Nc3ccc4c(c3)OCO4)ccc2O[C@H]1CN(C)S(=O)(=O)c1cn(C)cn1`
Reply | class 0

----------
# Tested on: HSkMC (human skeletal muscle cells)
# protocolNotes: cytotoxicity call (relative viability < 0.9)
# condition: 10 µM
Out of some 39,000 compounds screened, about 1,500 (3.8%) were called active. Many of the other results were omitted from the sample, so actives are more common in it than they were.
Select the correct class. Options are label 1 = active, label 0 = inactive and nothing else.

Illustrative cases are given below, each with its answer.
> print(dat)
                               linenotation  labelclass
1  COc1ccc(-c2cnc3c(c2)C(=O)N([C@H](C)CO)C[C@H](C)[C@H](CN(C)C(=O)Cc2ccncc2)O3)cc1     label 0
2                           N[C@@H]1CONC1=O     label 0
3  CCC(=O)N(C)C[C@@H]1Oc2ncc(C#C[C@H](C)O)cc2C(=O)N([C@H](C)CO)C[C@H]1C     label 0
4                    CCn1c(N)c(C(N)=O)sc1=S     label 0
5  C[C@@H]1CN([C@H](C)CO)C(=O)Cc2cc(NC(=O)Nc3cccc4ccccc34)ccc2O[C@@H]1CN(C)S(=O)(=O)c1ccc(F)cc1     label 0

Ask | Outcome? `O=C(N[C@H]1CC[C@@H](CC(=O)N2CCOCC2)O[C@@H]1CO)c1ccc2c(c1)OCO2`
Reply | label 0

Ask | Outcome? `C[C@H](CO)N1C[C@H](C)[C@H](CN(C)Cc2ccc(Cl)c(Cl)c2)OCCCC[C@H](C)Oc2ccc(NS(=O)(=O)c3ccc(F)cc3)cc2C1=O`
Reply | label 1

Ask | Outcome? `Cc1noc(C)c1NC(=O)N(C)C[C@H]1Oc2ccc(NC(=O)C3CC3)cc2CC(=O)N([C@@H](C)CO)C[C@H]1C`
Reply | label 0

Ask | Outcome? `C[C@H](CO)N1C[C@H](C)[C@H](CN(C)CC2CC2)OCCCC[C@H](C)Oc2ccc(NC(=O)Nc3ccccc3)cc2C1=O`
Reply | label 0

Ask | Outcome? `C[C@@H]1CCCCO[C@H](CN(C)Cc2ccc(Cl)c(Cl)c2)[C@@H](C)CN([C@H](C)CO)C(=O)c2cc(NS(=O)(=O)c3ccc(F)cc3)ccc2O1`
Reply | label 0

Ask | Outcome? `C[C@@H]1CCCCO[C@@H](CN(C)Cc2ccc(Cl)c(Cl)c2)[C@H](C)CN([C@H](C)CO)C(=O)c2cc(NS(=O)(=O)c3ccc(F)cc3)ccc2O1`
Reply | label 1
